Listed here: items and their measured IC50.
# SYSTEM_TESTED: p120γ (PI3Kγ) (Homo sapiens, UniProt P48736)
# Construct: purchased BPS Bioscience 40625
# Sequence (P48736 whole entry): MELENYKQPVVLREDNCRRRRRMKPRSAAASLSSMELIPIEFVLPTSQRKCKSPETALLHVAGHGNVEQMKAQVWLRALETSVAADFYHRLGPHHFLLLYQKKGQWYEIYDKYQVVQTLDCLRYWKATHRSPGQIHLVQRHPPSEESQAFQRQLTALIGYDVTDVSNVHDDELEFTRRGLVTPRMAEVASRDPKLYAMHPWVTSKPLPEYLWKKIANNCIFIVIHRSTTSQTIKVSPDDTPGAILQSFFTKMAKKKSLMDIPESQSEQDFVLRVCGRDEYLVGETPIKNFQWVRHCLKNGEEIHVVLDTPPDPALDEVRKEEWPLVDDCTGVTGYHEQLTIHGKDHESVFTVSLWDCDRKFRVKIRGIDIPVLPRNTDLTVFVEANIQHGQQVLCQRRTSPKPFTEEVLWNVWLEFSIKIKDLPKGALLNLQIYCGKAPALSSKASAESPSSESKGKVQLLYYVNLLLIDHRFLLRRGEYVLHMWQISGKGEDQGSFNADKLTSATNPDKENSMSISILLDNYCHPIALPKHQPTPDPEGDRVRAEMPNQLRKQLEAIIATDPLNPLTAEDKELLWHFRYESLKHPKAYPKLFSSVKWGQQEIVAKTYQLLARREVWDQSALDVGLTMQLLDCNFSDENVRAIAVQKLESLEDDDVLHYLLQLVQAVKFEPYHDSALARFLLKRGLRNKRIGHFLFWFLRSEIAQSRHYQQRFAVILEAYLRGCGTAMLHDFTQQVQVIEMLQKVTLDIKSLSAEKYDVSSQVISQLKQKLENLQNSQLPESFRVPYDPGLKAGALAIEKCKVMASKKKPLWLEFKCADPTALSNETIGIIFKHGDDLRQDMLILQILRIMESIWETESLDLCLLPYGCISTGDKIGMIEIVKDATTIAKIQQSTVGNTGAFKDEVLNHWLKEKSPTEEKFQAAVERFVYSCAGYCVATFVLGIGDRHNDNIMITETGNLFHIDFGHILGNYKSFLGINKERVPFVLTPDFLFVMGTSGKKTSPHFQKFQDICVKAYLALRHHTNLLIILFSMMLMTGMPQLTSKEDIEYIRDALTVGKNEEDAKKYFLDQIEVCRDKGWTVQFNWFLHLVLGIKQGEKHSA
# PROCEDURE_DETAILS: HTRF assay, p120γ
# Type: biochemical
# PARTICULARS: PI3Kγ; read-out: PI3Kγ HTRF IC50 Inhibition Designation

Solved cases below.
> print(dat)
                            molecule.smiles                             system.tested  endpoint.value
1  CC1(C)Cc2nc(N3CCOc4ccc(NC(=O)[C@H]5CCC(=O)O5)cc43)sc2C(=O)N1  p120γ (PI3Kγ) (Homo sapiens, UniProt P48736)     0.1 to 1 µM
2  CC1(C)Cc2nc(N3CCOc4ccc(C(=O)N5C[C@H]6C[C@@H]5C(=O)O6)cc43)sc2C(=O)N1  p120γ (PI3Kγ) (Homo sapiens, UniProt P48736)     0.1 to 1 µM
3  O=C1CC[C@H](C(=O)N2CC=C(c3cc4nc(-c5cccc(O)c5)nc(N5CCOCC5)c4s3)CC2)O1  p120γ (PI3Kγ) (Homo sapiens, UniProt P48736)     0.1 to 1 µM
4  CN(Cc1cc2nc(-c3cccc(O)c3)nc(N3CCOCC3)c2s1)C(=O)[C@H]1CCC(=O)O1  p120γ (PI3Kγ) (Homo sapiens, UniProt P48736)     0.1 to 1 µM
5  C/C=C/S(=O)(=O)N1CCN(Cc2cc3nc(-c4cnc(N)nc4)nc(N4CCOCC4)c3s2)CC1  p120γ (PI3Kγ) (Homo sapiens, UniProt P48736)  0.01 to 0.1 µM

# evaluate next
Task: I would be grateful if you could share the reported IC50 for CC1(C)Cc2nc(N3CCOc4ccc(NC(=O)[C@@H]5CCC(=O)O5)cc43)sc2C(=O)N1 .
Output: 0.1 to 1 µM
